FYI, the data here is from patent US20230348362A1.

assay: Lipid nanoparticle size and polydispersity by dynamic light scattering; assay type: physicochemical; conditions: LNP of lipid/DSPC/cholesterol/PEG-lipid 50:10:38.5:1.5 encapsulating hEPO mRNA
measured.property: size (nm)
Enter the number, and then the unit.

### Prompt Please list size (nm) recorded for the compound CCCCCCCCC(CCCCCCCC)COC(=O)CCCCCN(CCO)CCN(CCCCCC(=O)OCC(CCCCCCCC)CCCCCCCC)Cc1ccncc1
### Response 71.53 nm

### Prompt Please list size (nm) recorded for the compound CCCCCCCCC(CCCCCC)COC(=O)CCCCCN(CCCCN(CCO)CCCCC(COC(=O)CCCCCCC)COC(=O)CCCCCCC)C1CCCCCC1 (centres unmarked)
### Response 80.39 nm

### Prompt Please list size (nm) recorded for the compound CCCCCCCCCCCC(=O)OCCCCCN(CCN(CCO)CCCCCOC(=O)CC(CCCCCCCC)CCCCCCCC)C1CCC1
### Response 80.12 nm

### Prompt Please list size (nm) recorded for the compound CCCCCCCCC(CCCCCC)CNC(=O)CCCCCN(CCCCN(CCO)CCCCC(COC(=O)CCCCCCC)COC(=O)CCCCCCC)C1CCCC1 (centres unmarked)
### Response 104.1 nm

###

test: Lipid nanoparticle size and polydispersity by dynamic light scattering; format: physicochemical; conditions: LNP of lipid/DSPC/cholesterol/PEG-lipid 50:10:38.5:1.5 encapsulating hEPO mRNA
measured.property: polydispersity
Keep the answer to the number alone.

CCCCCCCCC(CCCCCC)COC(=O)CCCCCN(CCO)CCN(CCCCC(COC(=O)CCCCCCC)COC(=O)CCCCCCC)C1CCC1 (stereo not shown)    0.035
CCCCCCCCC(CCCCCC)CNC(=O)CCCCN(CCO)CCN(CCCCC(COC(=O)CCCCCCC)COC(=O)CCCCCCC)C1CCCCCCC1 (stereo not shown)    0.058
CCCCCCCC(=O)OCC(CCCCN(CCO)CCN(CCCCC(COC(=O)CCCCCCC)COC(=O)CCCCCCC)C1CCC1)COC(=O)CCCCCCC    0.091
CCCCCCCCCCCOC(=O)CCCCCN(CCN(CCO)CCCCCC(=O)N(CCCCCCCC)CCCCCCCC)C1CCCCC1    0.030
CCCCCCCCC(CCCCCC)COC(=O)CCCCCN(CCO)CCN(CCCCCC(=O)OCC(CCCCCC)CCCCCCCC)C1CCC1 (stereo not shown)    0.06
CCCCCCCCC(CCCCCC)CNC(=O)CCCCCN(CCO)CCN(CCCCC(COC(=O)CCCCCCC)COC(=O)CCCCCCC)C1CCCCC1 (stereo not shown)    0.051
CCCCCCCCC(CCCCCCCC)COC(=O)CCCCCN1CCC(N(CCO)CCCCCC(=O)OCC(CCCCCCCC)CCCCCCCC)CC1    0.09
CCCCCCCCC(CCCCCCCC)CC(=O)NCCCCCN(CCN(CCO)CCCCCCOC(=O)C(CCCCCC)CCCCCCCC)C1CCC1 (stereo not shown)    0.005

### Prompt Please list polydispersity recorded for the compound CCCCCCCCC(CCCCCC)COC(=O)CCCCCN(CC=C(C)C)CCN(CCO)CCCCC(COC(=O)CCCCCCC)COC(=O)CCCCCCC (stereo not shown)
### Response 0.081

### Prompt Please list polydispersity recorded for the compound CCCCCCCCC(CCCCCC)CNC(=O)CCCCN(CCO)CCN(CCCCC(COC(=O)CCCCCCC)COC(=O)CCCCCCC)C1CCCC1 (stereo not shown)
### Response 0.048
